- System: 21 pGBMs
- assay.protocol: Pharmacodynamic analysis (alamarBlue dose-response, IC50)
- Format: cell-based
- test.parameters: Homo sapiens, 120 h, day 5, read-out: IC50 (50% reduction of relative metabolic activity), lower end of range over 21 pGBMs
endpoint: IC50

I am curious: what IC50 value has been reported for O=C(Nc1ccc([N+](=O)[O-])cc1Cl)c1cc(Cl)ccc1O [niclosamide] ?
≥ 300 nM
